system: UO-31 renal; assay: NCI tumour cell line growth inhibition, 48 h; in the data active means GI50 below about 0.43 µM; inactive means the rest
Would you mind answering with one of these outcomes? y = active, n = inactive

Outcome? COC(=O)C1=C(C)NC(C)=C(C(=O)OC)C1/C=C(\Cl)c1ccc(Cl)c(Cl)c1 n

Hey, what did the test say about Cn1ccnc1C(=O)/C=C/c1ccc(C(=O)Nc2ccc(S(F)(F)(F)(F)F)cc2)cc1 ? n

How did this test come out for Cc1ccc2c(c1)c1nc3cc(C)c(C)cc3nc1n2CCN(C)C ? n

What was the test verdict on Cn1cc(C2=C(c3cccc(N)c3)C(=O)NC2=O)c2ccccc21 ? n

Which outcome did this test record for the compound COc1cc2c(cc1OCCCCCOc1cc3c(cc1OC)C(=O)N1CC(F)C[C@H]1C=N3)N=C[C@@H]1CC(F)CN1C2=O (stereo not given in full) ? y

Look up the recorded call for Fc1ccc(-c2nn3c(-c4ccc(F)c(Cl)c4)nnc3s2)cc1 in this test. n

Field: outcome | Entry: CCCCOc1ccc(NC(=O)n2nc(N)c3ccccc32)cc1 n

How did this test come out for [Cl][Sn]([Cl])([c]1ccccc1)[c]1ccccc1 ? n

// return assay outcome for O=c1c2ccccc2c(Br)c(Br)c2ccccc12 n

Record request — test call for O=C(Nc1ccc(F)cc1)Nc1ccccc1CNc1nc(Nc2ccc(OCCN3CCCC3)cc2)ncc1Cl n
